# Kd listing for each entry below
experimentSummary: Affinity coelectrophoresis (ACE) of peptide binding to radiolabeled low Mr heparin
Design: species or system pig
appliedConditions: pH 7.0, mean and standard deviation of four assays, read-out: Kd (nM), affinity for low molecular weight heparin
Experimental: Preparation of Radiolabeled Heparin. […] Binding of radiolabeled heparin to peptides was studied by ACE as detailed elsewhere (San Antonio, J. D., et al., Biochemistry, 32:4746-4755, 1993). […] Gels were dried and PG mobility was measured with a Phosphorimager (Molecular Dynamics, Sunnyvale, Calif.) by scanning each protein lane and determining the relative radioactivity content per 88-μm pixel through the length of the lane. […]
Ends that are not written are not given here.
Entry rule: numbers only, all in nM.

[
  {
    "substance": "ARKKAAKAAAAAAAAAAAAAAAAAARKKAAKA [ARKKAAKA(A16)ARKKAAKA, reference compound]",
    "Kd / nM": 8330
  },
  {
    "substance": "ARKKAAKAARKKAAKAARKKAAKAVLVLVL [(ARKKAAKA)3VLVLVL]",
    "Kd / nM": 44
  },
  {
    "substance": "VLVLARKKAAKAPARKKAAKAVLVL",
    "Kd / nM": 5220
  },
  {
    "substance": "ARKKAAKAARKKAAKAARKKAAKAARKKAAKA [(ARKKAAKA)4]",
    "Kd / nM": 55
  },
  {
    "substance": "VLVL(ARKKAAKA)3ARKKCAKA (VLVLARKKAAKAARKKAAKAARKKAAKAARKKCAKA; Fragment)",
    "Kd / nM": 48
  }
]

Here's the next entry for you.
Identify measured Kd corresponding to ARKKAAKAARKKAAKAARKKAAKAVLVLVLVL [(ARKKAAKA)3VLVLVLVL]
57

----------
System: anti-Factor Xa Activity of the Low Molecular Weight Heparin Lovenox ®
experimentSummary: Anti-Factor Xa assay (Stachrom Heparin kit): neutralization of Lovenox in citrate or plasma in vitro
Format: biochemical, human
appliedConditions: 60 μg/ml Peptide; C Plasma; Lovenox 0.7 U/ml
Ends that are not written are not given here.
# Lovenox ® Neutralized listing for each entry below
Entry rule: numbers only, all in U/ml.

Solved entries:
[
  {
    "substance": "ARKKAAKAARKKAAKAARKKAAKAVLVLVLVL [(ARKKAAKA)3VLVLVLVL]",
    "resultUnit": "U/ml",
    "Lovenox ® Neutralized": 0.532
  },
  {
    "substance": "ARKKAAKAARKKAAKAARKKAAKAARKKAAKA [(ARKKAAKA)4]",
    "resultUnit": "U/ml",
    "Lovenox ® Neutralized": 0.495
  },
  {
    "substance": "ARKKAAKAARKKAAKAARKKAAKAVLVLVL [(ARKKAAKA)3VLVLVL]",
    "resultUnit": "U/ml",
    "Lovenox ® Neutralized": 0.491
  }
]

Fill: Lovenox ® Neutralized (anti-Factor Xa Activity of the Low Molecular Weight Heparin Lovenox ®) for this substance ARKKAAKAAAAAAAAAAAAAAAAAARKKAAKA [ARKKAAKA(A16)ARKKAAKA, reference compound]
0.015

Fill: Lovenox ® Neutralized (anti-Factor Xa Activity of the Low Molecular Weight Heparin Lovenox ®) for this substance VLVL(ARKKAAKA)3ARKKCAKA (VLVLARKKAAKAARKKAAKAARKKAAKAARKKCAKA; Fragment)
0.461

----------
System: anti-Factor Xa Activity of the Low Molecular Weight Heparin Lovenox ®
experimentSummary: Anti-Factor Xa assay (Stachrom Heparin kit): neutralization of Lovenox in citrate or plasma in vitro
Assay type: biochemical, human
appliedConditions: 12 μg/ml Peptide; A Plasma; Lovenox 0.7 U/ml
Method: The ability of peptides such as (ARKKAAKA)3VLVLVLVL (SEQ ID NO:5) to neutralize the anti-Factor Xa activity of UFH and LMWH in vitro was tested using the Stachrom Heparin kit (Diagnostica Stago), a standard hematology laboratory assay used to measure the anti-Factor Xa activity of heparin. […] Buffer and ATIII are added to form the heparin/ATIII complex, peptide is added, then Factor Xa, reporter dye substrate for Factor Xa activity, and stop solution, and the dye concentration is read at 405 nm. […]
Ends that are not written are not given here.
parameterMeasured: Lovenox ® Neutralized (U/ml)
Entry rule: numbers only, all in U/ml.

Solved entries:
[
  {
    "substance": "ARKKAAKAARKKAAKAARKKAAKAARKKAAKA [(ARKKAAKA)4]",
    "resultUnit": "U/ml",
    "Lovenox ® Neutralized": 0.287
  },
  {
    "substance": "ARKKAAKAAAAAAAAAAAAAAAAAARKKAAKA [ARKKAAKA(A16)ARKKAAKA, reference compound]",
    "resultUnit": "U/ml",
    "Lovenox ® Neutralized": 0.025
  }
]

Identify measured Lovenox ® Neutralized corresponding to ARKKAAKAARKKAAKAARKKAAKAVLVLVLVL [(ARKKAAKA)3VLVLVLVL]
0.441

----------
Tested on: anti-Factor Xa Activity of the Low Molecular Weight Heparin Lovenox ®
experimentSummary: Anti-Factor Xa assay (Stachrom Heparin kit): neutralization of Lovenox in citrate or plasma in vitro
Type: biochemical, human
appliedConditions: 6 μg/ml Peptide; A Plasma; Lovenox 0.7 U/ml
Procedure: The ability of peptides such as (ARKKAAKA)3VLVLVLVL (SEQ ID NO:5) to neutralize the anti-Factor Xa activity of UFH and LMWH in vitro was tested using the Stachrom Heparin kit (Diagnostica Stago), a standard hematology laboratory assay used to measure the anti-Factor Xa activity of heparin. […] Buffer and ATIII are added to form the heparin/ATIII complex, peptide is added, then Factor Xa, reporter dye substrate for Factor Xa activity, and stop solution, and the dye concentration is read at 405 nm. […]
Ends that are not written are not given here.
parameterMeasured: Lovenox ® Neutralized (U/ml)
Entry rule: numbers only, all in U/ml.

[
  {
    "substance": "ARKKAAKAARKKAAKAARKKAAKAVLVLVLVL [(ARKKAAKA)3VLVLVLVL]",
    "resultUnit": "U/ml",
    "Lovenox ® Neutralized": 0.292
  }
]

Fill: Lovenox ® Neutralized (anti-Factor Xa Activity of the Low Molecular Weight Heparin Lovenox ®) for this substance ARKKAAKAAAAAAAAAAAAAAAAAARKKAAKA [ARKKAAKA(A16)ARKKAAKA, reference compound]
0.018

Fill: Lovenox ® Neutralized (anti-Factor Xa Activity of the Low Molecular Weight Heparin Lovenox ®) for this substance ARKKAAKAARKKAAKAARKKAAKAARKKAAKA [(ARKKAAKA)4]
0.184

----------
# Lovenox ® Neutralized listing for each entry below
Tested on: anti-Factor Xa Activity of the Low Molecular Weight Heparin Lovenox ®
experimentSummary: Anti-Factor Xa assay (Stachrom Heparin kit): neutralization of Lovenox in citrate or plasma in vitro
Assay type: biochemical, human
appliedConditions: 6 μg/ml Peptide; B Plasma; Lovenox 0.7 U/ml
Ends that are not written are not given here.

Solved entries:
[
  {
    "substance": "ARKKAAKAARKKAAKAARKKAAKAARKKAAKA [(ARKKAAKA)4]",
    "Lovenox ® Neutralized": "0.178 ± 0.022 U/ml"
  },
  {
    "substance": "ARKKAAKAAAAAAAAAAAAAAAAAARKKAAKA [ARKKAAKA(A16)ARKKAAKA, reference compound]",
    "Lovenox ® Neutralized": "0.042 ± 0.041 U/ml"
  },
  {
    "substance": "VLVL(ARKKAAKA)3ARKKCAKA (VLVLARKKAAKAARKKAAKAARKKAAKAARKKCAKA; Fragment)",
    "Lovenox ® Neutralized": "0.233 ± 0.025 U/ml"
  },
  {
    "substance": "ARKKAAKAARKKAAKAARKKAAKAVLVLVL [(ARKKAAKA)3VLVLVL]",
    "Lovenox ® Neutralized": "0.234 ± 0.032 U/ml"
  }
]

Here's the next entry for you.
Identify measured Lovenox ® Neutralized corresponding to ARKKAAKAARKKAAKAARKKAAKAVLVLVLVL [(ARKKAAKA)3VLVLVLVL]
0.189 ± 0.066 U/ml

----------
Test system: anti-Factor Xa Activity of the Low Molecular Weight Heparin Lovenox ®
experimentSummary: Anti-Factor Xa assay (Stachrom Heparin kit): neutralization of Lovenox in citrate or plasma in vitro
Format: biochemical, human
appliedConditions: 12 μg/ml Peptide; B Plasma; Lovenox 0.7 U/ml
Ends that are not written are not given here.
parameterMeasured: Lovenox ® Neutralized (U/ml)
Entry rule: numbers only, all in U/ml.

Solved entries:
[
  {
    "substance": "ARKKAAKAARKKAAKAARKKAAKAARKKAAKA [(ARKKAAKA)4]",
    "Lovenox ® Neutralized, U/ml": 0.328
  },
  {
    "substance": "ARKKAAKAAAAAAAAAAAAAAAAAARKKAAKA [ARKKAAKA(A16)ARKKAAKA, reference compound]",
    "Lovenox ® Neutralized, U/ml": 0.042
  },
  {
    "substance": "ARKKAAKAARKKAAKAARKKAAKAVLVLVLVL [(ARKKAAKA)3VLVLVLVL]",
    "Lovenox ® Neutralized, U/ml": 0.376
  },
  {
    "substance": "VLVL(ARKKAAKA)3ARKKCAKA (VLVLARKKAAKAARKKAAKAARKKAAKAARKKCAKA; Fragment)",
    "Lovenox ® Neutralized, U/ml": 0.290
  }
]

Here's the next entry for you.
Identify measured Lovenox ® Neutralized corresponding to ARKKAAKAARKKAAKAARKKAAKAVLVLVL [(ARKKAAKA)3VLVLVL]
0.247
